# Tested on: SR leukemia
# EXPERIMENT_SUMMARY: NCI tumour cell line growth inhibition, 48 h
ASSAY_ENDPOINT: TGI

The compound Cc1cc(C)c2c(n1)S(=O)(=O)N(CCCN1CCN(c3cccc(Cl)c3)CC1)/C(=C(\O)c1ccc(Br)cc1)C2=O , when measured on SR leukemia, yielded TGI of > 100 µM

The compound Cc1cc(C)n(-c2nc(C)c(CCO)c(=O)[nH]2)n1 , when measured on SR leukemia, yielded TGI of > 100 µM

The compound CCC(Nc1ncnc2nc[nH]c12)C(=O)O (stereo not given) , when measured on SR leukemia, yielded TGI of > 100 µM

The compound COc1cc2c[n+](C)c3c4cc(OC)c(OCc5ccccc5)cc4c(OCc4ccccc4)cc3c2cc1OC , when measured on SR leukemia, yielded TGI of 6 µM

The compound O=C(NC1=C(Cl)C(=O)c2ccccc2C1=O)C(=O)C(C(=O)c1ccc2ccccc2c1)C1OC(=O)c2ccccc21 (stereo not given) , when measured on SR leukemia, yielded TGI of 29.4 µM

The compound CCC(=O)Nc1nnc(Cc2ccc(OC)c(OC)c2)s1 , when measured on SR leukemia, yielded TGI of > 100 µM

The compound COc1ccc(/C=C/C(=O)c2ccc(Br)cc2)cc1 , when measured on SR leukemia, yielded TGI of > 100 µM

The compound CCSc1nc(N/N=C/c2cccs2)c2cnn(CO)c2n1 , when measured on SR leukemia, yielded TGI of 26.7 µM

The compound COc1cc(/C=C/C(=N\NC(N)=S)c2sc(NNC(C)=O)nc2C)ccc1O , when measured on SR leukemia, yielded TGI of > 100 µM

The compound NC(=O)c1ncn(C2OC(CO)C(O)C2O)c1O (stereo not given) , when measured on SR leukemia, yielded TGI of > 100 µM

---

Hi there, I'd appreciate the recorded TGI for every entry that follows.
# Tested on: LXFL 529 NSCLC
# EXPERIMENT_SUMMARY: NCI tumour cell line growth inhibition, 48 h

Form: molecule = NC(=O)/N=C/c1c(O)c2ccccc2oc1=O ; TGI = > 100 µM

Form: molecule = CCN(CC)C(=S)SS(C)(=O)=O ; TGI = 30 µM

Form: molecule = COc1ccc2c(c1)[n+]([O-])c(-c1ccccc1Cl)c(N)[n+]2[O-] ; TGI = > 100 µM

Form: molecule = CSC(C1c2ccccc2N(C)c2[nH]c(=O)n(C)c(=O)c21)S(=O)(=O)c1ccc(C)cc1 (stereo unspecified) ; TGI = > 100 µM

Form: molecule = CC#COS(=O)(=O)c1ccc(C)cc1 ; TGI = > 100 µM

Form: molecule = CN(C)CCC[N+]1=Nc2cccc3cccc(c23)N1 ; TGI = > 100 µM

---

# Test system: A498 renal
# EXPERIMENT_SUMMARY: NCI tumour cell line growth inhibition, 48 h; in the data active = GI50 below about 0.43 µM; inactive = the rest
Lab note: assign the record to one of 1 = active, -1 = inactive

Problem: Status in this test for O=C1C(Cl)=C(NCCCN(CCCNC2=C(Cl)C(=O)c3ccccc3C2=O)C2=C(Cl)C(=O)c3ccccc3C2=O)C(=O)c2ccccc21 ?
Solution: -1

Problem: Status in this test for COc1cc(C(=O)n2nc(N)c3c(C)cc(C)nc32)cc(OC)c1OC ?
Solution: -1

Problem: Status in this test for CCS(=O)(=O)c1ccc(OC)c(Nc2ncc(-c3cccc(F)c3)o2)c1 ?
Solution: 1

Problem: Status in this test for COc1cc(-c2ccc[nH]2)[nH]c1/C=C1\N=C(C)C(CC(=O)OCC(C)(C)C)=C1C ?
Solution: 1

Problem: Status in this test for O=C1NC(=NCCc2ccc(Br)cc2)S/C1=C\c1ccc2ncccc2c1 ?
Solution: -1

Problem: Status in this test for O=C1/C(=C/c2ccc(C(F)(F)F)cc2)COc2ccc(O)c(O)c21 ?
Solution: -1

Problem: Status in this test for CCc1c(C)c2cc(-n3c(-c4ccc(OC)cc4)csc3=N)c(O)c(C)c2oc1=O ?
Solution: -1

Problem: Status in this test for CCCCCCCCN=C(NCCCCCCCC)SCc1cccc2ccccc12 ?
Solution: -1

Problem: Status in this test for CSc1ccc(C(=O)/C=C/c2ccc(Cl)cc2Cl)cc1 ?
Solution: -1

Problem: Status in this test for Cc1cc(N2CCOCC2)nc(NCc2cc(Nc3ccnc4cc(Cl)ccc34)ccc2F)n1 ?
Solution: -1

Problem: Status in this test for N#Cc1c(N)nc(N2CCOCC2)c(C#N)c1-c1c(Cl)cccc1Cl ?
Solution: -1

Problem: Status in this test for CC1=C[C@@H]2c3c(c(O)c(O)c4oc5cc(O)cc(O)c5c(=O)c34)[C@@H](c3cc(O)c(O)c4oc5cc(O)cc(O)c5c(=O)c34)[C@@H]2C(C)(C)C1 ?
Solution: -1

Problem: Status in this test for Cc1cc(N(CCNc2ccnc3cc(Cl)ccc23)Cc2ccc3c(c2)OCO3)nc(N2CCCC2)n1 ?
Solution: -1

Problem: Status in this test for Cn1c(I)c(C#C[Si](C)(C)C)c(=O)[nH]c1=O ?
Solution: -1

Problem: Status in this test for CCOC(=O)/C=C1/SC(=Nc2ccc(C#N)cc2)N(Cc2ccco2)C1=O ?
Solution: -1

Problem: Status in this test for COc1ccc2c(c1)/C(=N/OC(C)=O)c1c-2c(OC)nc2ccccc12 ?
Solution: -1

Problem: Status in this test for C[C@]12CCC(=O)C[C@@H]1CC[C@@H]1[C@@H]2CC[C@]2(C)[C@@H](OC(=O)N(CCCl)N=O)CC[C@@H]12 ?
Solution: -1

Problem: Status in this test for CCN1C(=O)N(CC)C2C1N=C(SC)N2/N=C/C=C/c1ccccc1OC (centres undefined) ?
Solution: 1

Problem: Status in this test for COc1cc(C2NC(=O)C(C#N)=C(Nc3cccc(C)c3)S2)ccc1O (centres undefined) ?
Solution: -1

Problem: Status in this test for COC(=O)c1cc(-c2ccc(S(C)(=O)=O)cc2)[nH]c1N/N=C/c1c(Cl)cccc1Cl ?
Solution: 1

Problem: Status in this test for Cc1c(C(N)=O)sc2nc(C)n(/N=c3\scc(-c4ccccc4)n3Cc3ccccc3)c(=O)c12 ?
Solution: -1

Problem: Status in this test for CC(=O)c1c(C)c2cnc(Nc3ccc(N4CCNCC4)cn3)nc2n(C2CCCC2)c1=O ?
Solution: -1

Problem: Status in this test for Cc1ccc(-c2nc3sc(C)cn3c2/C=C2\C(=O)Nc3ccc(Cl)cc32)cc1 ?
Solution: -1

Problem: Status in this test for COc1ccc2nc3ccccc3c(NCCNCC(C)O)c2c1 (centres undefined) ?
Solution: 1
